# study.target: Genome polyprotein (Dengue virus type 2 (strain 16681-PDK53))
# assay: flavivirus cap methylation enzyme inhibition – biochemical, confirmation dose response, primary screen (AID 588689)
# stated.conditions: Dengue-2 NS5 methyltransferase capping enzyme assay, at 25 µM, active compounds read high
Hit rate of the full screen: of about 340,000 compounds, about 1,000 (0.29%) were called active. These entries were drawn from the full list. Measured potencies and affinities stand elsewhere.
quantity.name: inhibition (%)

| molecule | quantity.name | data.value |
| --- | --- | --- |
| CCN(C(=O)COC(=O)/C=C/c1ccc(Cl)c(Cl)c1)c1c(N)n(Cc2ccccc2)c(=O)[nH]c1=O | inhibition | 2.22 |
| COc1ccc(NC(=S)NN2C(C)CCCC2C)cc1 (configuration not stated) | inhibition | -6.57 |
| O=C(NCCc1cccnc1)C1CCC(=O)N(CCc2cccc(F)c2)C1 (configuration not stated) | inhibition | -9.31 |
| O=C(NCCCc1ccccc1)c1cccc(NC(=O)C2CCCCC2)c1 | inhibition | -8.46 |
| COc1ccc(NC(C)C(=O)N/N=C/c2ccc([N+](=O)[O-])s2)cc1 (configuration not stated) | inhibition | -5.18 |
| CC1=NN(c2ccccc2)C(=O)/C1=C\c1cn(CCC#N)nc1-c1ccc(Cl)cc1 | inhibition | 5.39 |
| Cc1cccc(N/N=C/c2ccccc2O)c1 | inhibition | -8.43 |

Just for reference, PubChem BioAssay AID588689 is where these values come from.
